Entry source: patent US11306071B2

Biological target: HEK-293 cells expressing human recombinant adenosine A2A receptor (Homo sapiens (Human), UniProt P29274)
Sequence (P29274 whole entry): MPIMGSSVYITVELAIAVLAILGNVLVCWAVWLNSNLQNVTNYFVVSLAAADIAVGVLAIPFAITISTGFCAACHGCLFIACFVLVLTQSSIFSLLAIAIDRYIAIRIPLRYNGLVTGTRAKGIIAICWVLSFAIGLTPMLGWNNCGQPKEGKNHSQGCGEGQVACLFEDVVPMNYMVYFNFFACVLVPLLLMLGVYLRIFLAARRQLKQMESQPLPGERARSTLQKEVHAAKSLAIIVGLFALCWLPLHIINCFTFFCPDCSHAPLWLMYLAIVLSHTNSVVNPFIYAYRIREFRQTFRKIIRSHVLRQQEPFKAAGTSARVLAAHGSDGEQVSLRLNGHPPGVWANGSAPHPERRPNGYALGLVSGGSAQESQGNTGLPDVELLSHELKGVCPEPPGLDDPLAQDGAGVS
Test: cAMP assay (Assay 2), A2A receptor
pIC50: −log10 of the molar value.
ASSAY_METRIC: pIC50

{"columns": ["COMPOUND", "REPORTED_VALUE"],
 "data": [
  ["C[C@@H](NC(=O)c1nc(-c2ccc3ncccc3c2)c(-c2ccccc2)nc1N)c1ncccn1", 7.57]
]}

[1] CC(C)(NC(=O)c1nc(-c2ccc3ncccc3c2)c(-c2ccccc2)nc1N)c1ccccn1
[2] Nc1nc(-c2ccc(F)cc2)c(-c2cc(Cl)c3ncccc3c2)nc1C(=O)NCCC1CCOCC1
[3] CC(NC(=O)c1nc(-c2cc(Cl)c3ncccc3c2)c(-c2ccc(F)cc2)nc1N)c1cccc(C#N)n1 (stereo not shown)
[4] C[C@H](NC(=O)c1nc(-c2cc(Cl)c3ncccc3c2)c(-c2ccccc2)nc1N)c1cccc(C#N)n1
Ascending sort, pIC50. Response format: the labels, sorted as the prompt asks.
2, 3, 1, 4
(2: 6.62, 3: 6.84, 1: 7.26, 4: 7.48)

[a] N#Cc1cccc(-c2nc(N)cnc2-c2cc(Cl)c3ncccc3c2)c1F
[b] CCN(CC)CCNc1nc(-c2ccc3ncccc3c2)c(-c2ccccc2)nc1N
[c] N#Cc1cccc(-c2nc(N)cnc2-c2cc(Cl)c3[nH]ncc3c2)c1
Hello, I need these entries ordered by pIC50, highest reading first. Thanks! Response format: the labels, sorted as the prompt asks.
a, c, b
(a: 7.41, c: 6.89, b: 6.58)

[A] N#Cc1cccc(-c2nc(N)cnc2-c2cc(Cl)c3ncccc3c2)c1
[B] Cc1c(C#N)cccc1-c1nc(N)cnc1-c1cc(Cl)c2ncccc2c1
Compare the recorded pIC50 of A and B ; state which is larger. # reply format: chosen label
A

----------
Biological target: UniProt:P30542
Assay: A1 adenosine receptor radioligand binding assay ([3H] DPCPX)
Settings: 200 nM compound; radioligand [3H] DPCPX 1 nM
ASSAY_METRIC: inhibition at 0.2 µM (%)

[1] CC(NC(=O)c1nc(-c2ccc3ncccc3c2)c(-c2ccccc2)nc1N)c1ncccn1 (stereo not drawn)
[2] C[C@@H](NC(=O)c1nc(-c2cc(Cl)c3[nH]ncc3c2)c(-c2ccn(C)n2)nc1N)c1ccccn1
I would appreciate it if you could say which entry, 1 or 2 , has the lower inhibition at 0.2 µM value. # reply format: chosen label
1
(1: 45%, 2: 77%)

[I] C[C@H](NC(=O)c1nc(-c2ccc3ncccc3c2)c(-c2ccccc2)nc1N)c1ncccn1
[II] Nc1nc(-c2ccc(F)cc2)c(-c2cc(Cl)c3ncccc3c2)nc1C(=O)NCCC1CCOCC1
Compare the recorded inhibition at 0.2 µM of I and II ; state which is larger. # reply format: chosen label
II
(II: 66%, I: 41%)

----------
Target: HEK-293 cells expressing human recombinant adenosine A1 receptor (Homo sapiens (Human), UniProt P30542)
Sequence (P30542 whole entry): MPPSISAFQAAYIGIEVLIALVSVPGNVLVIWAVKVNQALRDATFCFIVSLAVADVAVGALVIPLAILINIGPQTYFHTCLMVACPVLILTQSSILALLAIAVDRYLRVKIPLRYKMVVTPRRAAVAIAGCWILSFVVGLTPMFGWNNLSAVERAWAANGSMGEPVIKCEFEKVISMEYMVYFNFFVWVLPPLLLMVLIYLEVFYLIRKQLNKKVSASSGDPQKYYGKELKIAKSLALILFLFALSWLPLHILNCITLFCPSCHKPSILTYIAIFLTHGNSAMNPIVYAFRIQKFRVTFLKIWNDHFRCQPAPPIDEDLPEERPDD
Assay: cAMP assay (Assay 2), A1 receptor
ASSAY_METRIC: IC50 (nM)

{"columns": ["MOLECULE", "REPORTED_VALUE"],
 "data": [
  ["C[C@@H](NC(=O)c1nc(-c2cc(Cl)c3ncccc3c2)c(-c2ccn(C)n2)nc1N)c1ccccn1", 22]
]}

[a] N#Cc1cccc(CNC(=O)c2nc(-c3cc(Cl)c4ncccc4c3)c(-c3ccc(F)cc3)nc2N)n1
[b] C[C@@H](NC(=O)c1nc(-c2ccc3ncccc3c2)c(-c2ccccc2)nc1N)c1ccccn1
[c] CC(NC(=O)c1nc(-c2cc(Cl)c3ncccc3c2)c(-c2ccc(F)cc2)nc1N)c1cccc(C#N)n1 (stereo not shown)
[d] N#Cc1cccc(-c2nc(N)cnc2-c2cc(Cl)c3ncccc3c2)c1
Hello, I need these entries ordered by IC50, highest reading first. Thanks! Response format: the labels, sorted as the prompt asks.
b, c, a, d
(b: 804 nM, c: 24 nM, a: 10 nM, d: 5 nM)

[P] C[C@@H](NC(=O)c1nc(-c2cc(Cl)c3[nH]ncc3c2)c(-c2ccc(F)cc2)nc1N)c1ccccn1
[Q] C[C@H](NC(=O)c1nc(-c2ccc3ncccc3c2)c(-c2ccccc2)nc1N)c1ccccn1
I would appreciate it if you could say which entry, P or Q , has the lower IC50 value. # reply format: chosen label
P
(P: 117 nM, Q: 219 nM)
